FYI, the data here is from ChEMBL document CHEMBL3352415.

Target: Tyrosine-protein phosphatase non-receptor type 11 (Homo sapiens, UniProt Q06124)
Sequence (Q06124 whole entry): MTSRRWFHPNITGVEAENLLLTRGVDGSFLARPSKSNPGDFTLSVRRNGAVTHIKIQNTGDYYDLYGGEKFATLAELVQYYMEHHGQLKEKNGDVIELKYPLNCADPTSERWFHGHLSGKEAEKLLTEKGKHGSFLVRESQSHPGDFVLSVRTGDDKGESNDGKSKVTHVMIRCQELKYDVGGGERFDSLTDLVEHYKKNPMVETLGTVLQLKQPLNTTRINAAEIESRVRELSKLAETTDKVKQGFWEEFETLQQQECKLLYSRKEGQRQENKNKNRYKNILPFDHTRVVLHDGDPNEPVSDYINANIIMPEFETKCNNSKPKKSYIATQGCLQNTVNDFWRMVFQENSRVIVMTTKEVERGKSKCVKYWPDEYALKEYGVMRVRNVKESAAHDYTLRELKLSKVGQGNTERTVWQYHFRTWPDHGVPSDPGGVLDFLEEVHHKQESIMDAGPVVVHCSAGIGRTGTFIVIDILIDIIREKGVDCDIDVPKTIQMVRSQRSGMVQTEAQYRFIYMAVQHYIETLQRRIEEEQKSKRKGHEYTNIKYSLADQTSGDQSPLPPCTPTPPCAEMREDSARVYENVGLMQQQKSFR
Assay: Inhibition of SHP2 (unknown origin)
measurement-type: IC50

Past entries and their recorded results:
O=C(Nc1nnc(-c2ccc(Oc3ccc([N+](=O)[O-])cc3[N+](=O)[O-])cc2)s1)c1ccccc1F    Not Active
COc1cccc(C(=O)Nc2nnc(-c3ccc(Oc4ccc([N+](=O)[O-])cc4[N+](=O)[O-])cc3)s2)c1    Not Active
O=C(Nc1nnc(-c2ccc(Oc3ccc([N+](=O)[O-])cc3)cc2)s1)c1ccccc1F    Not Active
Cc1ccccc1C(=O)Nc1nnc(-c2ccc(Oc3ccc([N+](=O)[O-])cc3)cc2)s1    Not Active
O=C(Nc1nnc(-c2ccc(Oc3ccc([N+](=O)[O-])cc3)cc2)s1)c1ccc(F)cc1    Not Active

Batch request: IC50 for each of the following compounds.
1. Cc1ccc(C(=O)Nc2nnc(-c3ccc(Oc4ccc([N+](=O)[O-])cc4)cc3)s2)cc1
2. COc1cc(C(=O)Nc2nnc(-c3ccc(Oc4ccc([N+](=O)[O-])cc4[N+](=O)[O-])cc3)s2)cc(OC)c1OC
3. COc1ccc(C(=O)Nc2nnc(-c3ccc(Oc4ccc([N+](=O)[O-])cc4[N+](=O)[O-])cc3)s2)cc1
4. O=C(Cc1ccccc1)Nc1nnc(-c2ccc(Oc3ccc([N+](=O)[O-])cc3)cc2)s1
5. O=C(Nc1nnc(-c2ccc(Oc3ccc([N+](=O)[O-])cc3)cc2)s1)c1ccccc1

1. Not Active
2. Not Active
3. Not Active
4. Not Active
5. Not Active
